pKd: −log10 of the molar value.
// cross-source set; read-out = pKd; system = Mast/stem cell growth factor receptor Kit (Homo sapiens)
assay_endpoint: pKd

INSERT INTO assay_data (molecule, assay_endpoint, test_value) VALUES
  ('CN1CC(=O)Nc2ncc(-c3ccc(CC(=O)Nc4cc(C(C)(C)C)on4)cc3)cc2C1', 'pKd', '8.00 to 9.00'),
  ('CC(C)(C)c1cc(NC(=O)Nc2ccc(-c3cnc(NCCN4CCCCC4)nc3)cc2)no1', 'pKd', '8.00 to 9.00'),
  ('CC(C)(C)c1cc(NC(=O)Nc2ccc(-c3cnc(CCCN4CCOCC4)nc3)cc2)no1', 'pKd', '8.00 to 9.00'),
  ('CS(=O)(=O)CCNc1ccc(-c2ccc(CC(=O)Nc3cc(C4(C(F)(F)F)CC4)on3)cc2)cn1', 'pKd', '8.00 to 9.00'),
  ('CCN1CCCC1CNc1ccc(-c2ccc(NC(=O)Nc3cc(C(C)(C)C)on3)cc2)cn1 (stereo not shown)', 'pKd', '≥ 9.00'),
  ('CC(C)(C)c1cc(NC(=O)Nc2ccc(-c3ccc(N)nc3)cc2)no1', 'pKd', '≥ 9.00'),
  ('COc1ccc(-c2cncc(N[C@@H](C)c3cccc(NC(=O)c4cncc(C)c4)c3)n2)cc1OC', 'pKd', 8.33),
  ('CC(C)(C)c1cc(NC(=O)Cc2ccc(-c3cnc4[nH]c(=O)[nH]c4c3)cc2)no1', 'pKd', '8.00 to 9.00'),
  ('CC(C)(C)c1cc(NC(=O)Nc2ccc(-c3cnc(NCCN4CCOCC4)nc3)cn2)no1', 'pKd', '≥ 9.00'),
  ('Cc1nc(N)ccc1-c1ccc(NC(=O)Nc2cc(C(C)(C)C)on2)nc1', 'pKd', '≥ 9.00'),
  ('CC(C)(C)c1cc(NC(=O)Cc2ccc(-c3cnc(N)nc3)cn2)no1', 'pKd', '8.00 to 9.00'),
  ('CC(C)(C)c1cc(NC(=O)Nc2ccc(-c3ccc(N)nc3)s2)no1', 'pKd', '8.00 to 9.00'),
  ('Nc1ncc(-c2ccc(NC(=O)Cc3cccc(C(F)(F)F)c3)cc2)cn1', 'pKd', '≥ 9.00'),
  ('Cc1nc(-c2ccc(Cl)cc2)sc1C(=O)Nc1ccc(-c2cn3c(n2)sc2cc(OCCN4CCOCC4)ccc23)cc1', 'pKd', '6.00 to 7.00'),
  ('O=C(Nc1ccc(-c2cn3c(n2)sc2cc(OCCN4CCOCC4)ccc23)cc1)Nc1ccc2c(c1)OCO2', 'pKd', '> 8.00'),
  ('CC(F)(F)C1(c2cc(NC(=O)Cc3ccc(-c4ccc(N)nc4F)cc3)no2)CC1', 'pKd', '8.00 to 9.00');
